Numbers sourced from PubChem BioAssay (NCI).

system: SK-MEL-5 melanoma; test: NCI tumour cell line growth inhibition, 48 h
We begin with a simple list: items and their reported TGI.

COMPOUND	TGI
S=C1N(c2ccc(Cl)cc2)C2=C(N=Nc3ccccc3)C(=Nc3ccccc3S2)N1c1ccccn1	23.4 µM
C=C1C(=O)C23CC1C[C@H](OC(C)=O)C2C1(C)C(OC(C)=O)C[C@H](O)C(C)(C)[C@H]1C(O)[C@@H]3OC(C)=O (some centres undefined)	27.9 µM
N#CS/C(Cl)=C(/C(Cl)=C(Cl)Cl)[N+](=O)[O-]	> 100 µM
O=C1/C(=C\c2ccc(-c3ccc(Cl)cc3Cl)o2)SC2N=C(COc3ccc(Cl)cc3)NN12 (centres undefined)	> 100 µM
COc1ccc(/C=C2/C[N+](C)(C)C/C(=C/c3ccc(OC)cc3)C2=O)cc1	> 72 µM
COC12C=CC(CC1)C1C(=O)c3c(C)c(C)n(C)c3C(=O)C12 (centres undefined)	> 100 µM
O=C1c2ccccc2-c2c1c1ccccc1c(=O)n2CCCN1CCOCC1	> 95 µM
O=c1cc2ccccc2nn1-c1ccccc1Cl	> 100 µM
O=[N+]([O-])C(=C(N1CCOCC1)N1CCOCC1)/C(Cl)=C(\Cl)[N+](=O)[O-]	3.04 µM
CCOC(=O)c1ccc(N2C(=O)/C(=C\OC)c3ccccc3C2=O)cc1	> 100 µM
CCCNC(=S)/N=C\c1c(O)c2ccccc2oc1=O	> 100 µM
CC1[C@@H](OCc2ccccc2)COC(=O)N1Cc1ccccc1 (some centres undefined)	> 100 µM
c1ccc(N=C2c3ccccc3C3=NCCCN32)cc1	76.8 µM
CNC(=O)CCNC(=O)CCC(=O)OC	> 100 µM
C=C(C)[C@@H]1CC[C@]2(C(=O)O)CC[C@]3(C)[C@H](CC[C@@H]4[C@@]5(C)CC[C@H](C(=O)/C=C/c6ccc(O)cc6)C(C)(C)[C@@H]5CC[C@]43C)[C@@H]12	10.4 µM
O=C(c1ccccc1)c1c(C(=O)c2ccccc2)c(-c2ccccc2)c2c(-c3ccccc3)sc(-c3ccccc3)c2c1-c1ccccc1	> 100 µM
CC(=O)OC(C)(C)/C=C/C(=O)[C@](C)(O)[C@H]1[C@H](O)C[C@@]2(C)[C@@H]3CC=C4[C@@H](C[C@H](O)C(=O)C4(C)C)[C@]3(C)C(=O)C[C@]12C	0.135 µM
O=C(O)C1CC(c2ccccc2)=NN1c1ccccc1 (centres undefined)	> 100 µM
Cc1nc2cccc(NCc3ccc(C(=O)NO)cc3)c2c(=O)n1-c1ccccc1	3.1 µM
